B1: STX5 (parent)
chain: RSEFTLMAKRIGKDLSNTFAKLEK

- Variants of: B1
- assay method text: protein stability index of a GFP-peptide fusion (GPS, HEK-293T) (PSI 1-6); higher = more stable;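 also: lentivirally expressed fusions sorted by FACS into six bins by GFP to DsRed ratio, PSI derived from sequencing read proportions per bin multiplied by bin number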
- condition: c terminus: a fixed tail appended
readout label: protein stability index
The response must contain the number and no unit.

Supply protein stability index value. Item: K21T 2.01

Supply protein stability index value. Item: R10L 2.73

Supply protein stability index value. Item: L22N 3.15

Supply protein stability index value. Item: K13T 1.46

Supply protein stability index value. Item: K21D 1.91

Supply protein stability index value. Item: K9P 2.94

Supply protein stability index value. Item: K13L 2.83

Supply protein stability index value. Item: A20I 1.63

Supply protein stability index value. Item: F4P 3.58

Supply protein stability index value. Item: M7K 3.75

Supply protein stability index value. Item: R10I 1.95

Supply protein stability index value. Item: L15C 1.53

Supply protein stability index value. Item: K21V 1.4

Supply protein stability index value. Item: F4D 3.88

Supply protein stability index value. Item: L15A 2.59

Supply protein stability index value. Item: L6D 1.4

Supply protein stability index value. Item: K24Y 3.59

Supply protein stability index value. Item: E23D 2.2

Supply protein stability index value. Item: F4Q 3.49
